- System: Plasmodium berghei
- EXPERIMENT DESCRIPTION: Screen against P. berghei liver stage (PbLuc), transformed with Luciferase, at 10uM
- Format: functional, HepG2
- ASSAY CONTEXT: tested at 10 uM
In all, about 69,000 compounds went through this assay and about 8,600 (12%) showed an effect of 50% or more. The sample holds strong results, similar compounds and a random draw of the others, so the mix is not that of the screen.
The following compounds are listed with their measured INHIBITION values.
Just the number in %, nothing appended.

Sample answers from the record:
compound=CNc1ncc(CN(C)C(=O)c2cccc(-n3cccn3)c2)cn1 reported_property=INHIBITION units_text=% readout_value=25.8
compound=Cc1ncn(CCNC(=O)Nc2ccccc2)c(=O)c1C reported_property=INHIBITION units_text=% readout_value=-10.6
compound=O=C(NC1(c2nccs2)CCCC1)c1[nH]nc(C2CC2)c1Cl reported_property=INHIBITION units_text=% readout_value=56.6
compound="Cc1noc(C(C)N2CCC(c3nc4ccccc4[nH]3)CC2)n1 (stereo not given)" reported_property=INHIBITION units_text=% readout_value=35.4
compound="COc1cc(C)nc(N2CCN(C(C)c3nc(C)no3)CC2)n1 (stereo not given)" reported_property=INHIBITION units_text=% readout_value=-72.5
compound="Cn1cccc1C(O)CNS(=O)(=O)c1ccccc1F (stereo not given)" reported_property=INHIBITION units_text=% readout_value=51

Value of INHIBITION reported for the compound Cc1noc(C(C)N2CCN(c3ncnc4ccccc34)CC2)n1 (stereo not given) is 51.3

Recorded result, N#Cc1cccc(S(=O)(=O)NC(=O)C2CC(c3ccccc3)=NO2)c1 (stereo not given) , INHIBITION: 33.4

Sure, the documented INHIBITION for Cc1noc(C(C)N2CCN(Cc3ccco3)CC2)n1 (stereo not given) is 34.7

In plain terms, Cc1noc(C)c1S(=O)(=O)NCC(O)c1ccc2c(c1)CCO2 (stereo not given) has a documented INHIBITION of 42.3

Record summary for Cc1cc(F)ccc1S(=O)(=O)NCC(O)c1cccn1C (stereo not given) : reported INHIBITION = -1.99
